assay: qHTS of pediatric cancer cell lines to identify multiple opportunities for drug repurposing: Primary screen for SK-N-SH cells (AID 1347098); details: SK-N-SH viability, CellTiter-Glo luminescence, 48 h; series mostly up to 57 µM; note: nearly all actives have a fitted effect of over 65% in size
Records with an inconclusive call do not appear. Activity calls are given as the source filed them. Calls come from the whole dose curve; as a rule, active = well fitted cell-killing curve with a large enough effect; inconclusive = small, poorly fitted or top-dose-only effect; inactive = no such curve, though single readings can be large or run the other way.
Can you answer with just one of these options? active, inactive

Sample answers from the record:
{"Smiles Representation": "COc1ccc2c(c[n+](C)c3c4cc5c(cc4ccc23)OCO5)c1OC", "Class Assignment": "active"}
{"Smiles Representation": "CC1(N2CCC(n3c([C@@H]4CCCNC4)nc4ccccc43)CC2)CCCCCCC1", "Class Assignment": "active"}

Here's the next entry for you.
What was the test verdict on `CN[C@@H](C)[C@H](O)c1ccccc1` ?
inactive

###

Assay: qHTS for Inhibitors of ATXN expression: Validation (AID 588378); note: nearly all actives have a fitted effect of over 75% in size
Conditions: cell-based ATXN2 expression reporter assay, luminescence; series mostly up to 57.1 µM
Source text: Spinocerebellar ataxia type 2 (SCA2) is a multisystem neurodegenerative disease caused by a dominantly-acting mutation leading to expansion of a polyQ domain in the ataxin-2 protein (ATXN2). SCA2 patients develop progressive ataxia and later lose function in other neuronal systems. Prominent parkinsonian signs develop in some patients. Similar to many neurodegenerative disorders, no symptomatic or disease-modifying treatments are known. […]
Inconclusive results are not listed. Calls of active or inactive are those of the source. Calls come from the whole dose curve; as a rule, active = well fitted inhibition curve with a large enough effect; inconclusive = small, poorly fitted or top-dose-only effect; inactive = no such curve, though single readings can be large or run the other way.
Mark one answer only. Choices: active, inactive

Recorded results for 5 compounds are shown here.
{"Compound": "COC(=O)[C@@H](N)CCCN=C(N)N[N+](=O)[O-]", "Class Assignment": "inactive"}
{"Compound": "O=C(O)[C@@H]1CCN1", "Class Assignment": "inactive"}
{"Compound": "COc1cc(C(O)CN)ccc1O (stereo not given)", "Class Assignment": "inactive"}
{"Compound": "CCCN1CCO[C@@H]2c3cc(O)ccc3OC[C@H]21", "Class Assignment": "inactive"}
{"Compound": "C#CCOC(=O)C1=CCCN(C)C1", "Class Assignment": "inactive"}

Could you please tell me the result logged for `NCCc1c[nH]c2ccccc12` in this assay?
inactive

Name the outcome recorded for NC1CCc2cc(O)c(O)cc2C1 (stereo not given) in the assay.
inactive

Please let me know the test result on file for NC1CC1c1ccccc1 (stereo not given) .
inactive

Field: outcome | Entry: `CN[C@@H]1C[C@@H](c2ccc(Cl)c(Cl)c2)c2ccccc21`
active

I'd appreciate the recorded outcome for `O=C(O)CC[N+](=O)[O-]` from this test.
inactive

Tell me the assay call for NC(=O)CN1CC(O)CC1=O (stereo not given) please.
inactive

Dear all, I need the recorded test outcome for `c1ccc2sc(C3(N4CCCCC4)CCCCC3)cc2c1` , thank you.
inactive

Could you kindly confirm the outcome this assay logged for `CCCN(CCC)[C@@H]1CCc2ccc(O)cc2C1` ?
inactive

Dear colleague, could you share the recorded outcome for `NC(=NCCC[C@H](N)C(=O)O)N[N+](=O)[O-]` when you have a moment?
inactive

Field: outcome | Entry: CC(=O)[C@H]1CCC2C3CC[C@H]4C[C@H](O)CC[C@]4(C)C3CC[C@@]21C (stereo not given in full)
inactive

I would be grateful if you could indicate the recorded call for `Cc1c(C(=O)c2cccc3ccccc23)c2cccc3c2n1[C@H](CN1CCOCC1)CO3` .
active

Hey, what did the test say about CS(=N)(=O)CC[C@H](N)C(=O)O (stereo not given in full) ?
inactive

What outcome does the record of this test show for `Cn1cnc(CCN)c1` ?
inactive

Which result was noted for this compound in the test: CCCN(CCC)C1CCc2ccc(O)cc2C1 (stereo not given)
inactive

Kindly provide the recorded test outcome for the following compound: `S=C(NC1CCCCC1)N1CCC(c2cnc[nH]2)CC1`
inactive

###

test: Quantitative High-Throughput drug screen in 47 multiple myeloma cell lines against the NCATS MIPE library collection: U266_ATCC cell viability assay (AID 1919864); details: U266 myeloma viability, CellTiter-Glo ATP luminescence, 48 h; series mostly up to 45.8 µM; note: nearly all actives have a fitted effect of over 35% in size
Results filed as inconclusive are left out. Active and inactive are the calls of the source. Calls follow the shape of the dose curve; as a rule, active = well fitted cell-killing curve with a large enough effect; inconclusive = small, poorly fitted or top-dose-only effect, or effect the other way; inactive = no such curve, though single readings can be large or run the other way.
Give your call using only these classes: active, inactive

Below, 5 compounds whose answers are already recorded.
{"Compound": "C=C[C@@H]1CN2CCC1C[C@@H]2[C@@H](O)c1ccnc2ccccc12 (some centres undefined)", "Class Assignment": "active"}
{"Compound": "CC(C)N(CCNC(=O)CN1CCCC1=O)C(C)C", "Class Assignment": "inactive"}
{"Compound": "C#CC1(O)CCC2C3CCC4=CC(=O)CCC4(C)C3CCC21C (centres undefined)", "Class Assignment": "inactive"}
{"Compound": "C1=C2CCCN[C@H]2[C@@H]2C[C@H]1[C@@H]1CCCCN1C2", "Class Assignment": "inactive"}
{"Compound": "COc1ccc2c(c1)[C@]13CCCCC1C(C2)N(C)CC3 (some centres undefined)", "Class Assignment": "inactive"}

What was the test verdict on `C[C@]12Cc3cn[nH]c3C[C@@H]1CC[C@@H]1[C@H]2CC[C@@]2(C)[C@H]1CC[C@]2(C)O` ?
inactive

For this compound, state the assay outcome: CC(C)(C)[C@]1(O)C[C@@H]2OC(=O)C[C@@]23C(=O)O[C@@H]2OC(=O)[C@H](O)C213 (some centres undefined)
inactive

For this compound, state the assay outcome: `CC[C@@]1(O)C(=O)OCc2c1cc1n(c2=O)Cc2cc3ccccc3nc2-1`
active

Record request — test call for `COc1cccc2c1[C@]13CCN(CC4CC4)[C@H](C2)[C@]1(OC)CCC(=O)C3`
inactive

// return assay outcome for `Clc1ccccc1C(c1ccccc1)(c1ccccc1)n1cccn1`
active

Please indicate how the test categorized CC(N[C@H]1C[C@H]1c1ccccc1)c1ccc2c(c1)OCCO2 (some centres undefined) .
active

Hello, I am checking results. What call was entered for `O=C(Nc1ccncc1)C(=O)c1cn(Cc2ccc(Cl)cc2)c2ccccc12` ?
inactive

Kindly provide the recorded test outcome for the following compound: `O=[N+]([O-])c1ncc[nH]1`
inactive

Short answer needed: outcome of this test for `CC(C)[C@]12O[C@@H]1[C@@H]1O[C@]13[C@]1(O[C@H]1C[C@@H]1C4=C(CC[C@@]13C)C(=O)OC4)[C@H]2O` ?
inactive

###

Please go through the items and note down their remaining parasite growth % (stronger effect = lower value).
Assay: qHTS profiling for inhibitors of Plasmodium falciparum (3D7) proliferation (AID 743322);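 note: infected erythrocytes exposed to compound for 72 h before lysis; 100% = DMSO vehicle wells and 0% = 0.29 µM artemisinin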
Details: P. falciparum 3D7 proliferation; at 28.7 µM (top of the series) unless noted
Experimental: Plasmodium falciparum is a virulent malarial parasite that kills 1-2 million people worldwide each year. […] Because mature erythrocytes lack DNA, only Plasmodium-derived DNA is detected. The SYBR Green viability assay was adapted from a method described previously (Plouffe et al., 2008). […] The following morning, fluorescence intensity at 485(14) nm excitation and 535(25) nm emission wavelengths was measured on an EnVision (Perkin Elmer) plate reader. […]
One number for each entry, in %.

Here is how some compounds turned out for remaining parasite growth % (stronger effect = lower value).
{"Smiles Representation": "Cc1ccccc1-n1c(Cn2cnc3c(N)ncnc32)nc2cccc(C)c2c1=O", "Recorded Value": 43.1}
{"Smiles Representation": "COc1ccc2c(c[n+](C)c3c4cc5c(cc4ccc23)OCO5)c1OC", "Recorded Value": 47.6}
{"Smiles Representation": "Cc1c(C(=O)Nc2cccc(C(F)(F)F)c2)cc(-c2ccccc2)n1CCCN1CCOCC1", "Recorded Value": 8.32}

Okay, now this compound:
Would you mind telling me what remaining parasite growth % (stronger effect = lower value) value was observed for `Cc1nc(-c2ccc(-c3ccc(C(=O)N4CCc5cc6c(cc54)C4(CCN(C)CC4)CO6)cc3)c(C)c2)no1` ?
36.2

###

target: Nucleoprotein (Lymphocytic choriomeningitis virus (strain Armstrong)) (UniProt P09992); assay: qHTS for Inhibitors of the Functional Ribonucleoprotein Complex (vRNP) of Lymphocytic Choriomeningitis Arenaviruses (LCMV): LCMV Primary Screen - GLuc reporter signal (AID 1347086); conditions: LCMV minigenome vRNP cell assay, Gaussia luciferase reporter; series mostly up to 57.5 µM; note: nearly all actives have a fitted effect of over 70% in size
Sequence (P09992 whole entry, looked up): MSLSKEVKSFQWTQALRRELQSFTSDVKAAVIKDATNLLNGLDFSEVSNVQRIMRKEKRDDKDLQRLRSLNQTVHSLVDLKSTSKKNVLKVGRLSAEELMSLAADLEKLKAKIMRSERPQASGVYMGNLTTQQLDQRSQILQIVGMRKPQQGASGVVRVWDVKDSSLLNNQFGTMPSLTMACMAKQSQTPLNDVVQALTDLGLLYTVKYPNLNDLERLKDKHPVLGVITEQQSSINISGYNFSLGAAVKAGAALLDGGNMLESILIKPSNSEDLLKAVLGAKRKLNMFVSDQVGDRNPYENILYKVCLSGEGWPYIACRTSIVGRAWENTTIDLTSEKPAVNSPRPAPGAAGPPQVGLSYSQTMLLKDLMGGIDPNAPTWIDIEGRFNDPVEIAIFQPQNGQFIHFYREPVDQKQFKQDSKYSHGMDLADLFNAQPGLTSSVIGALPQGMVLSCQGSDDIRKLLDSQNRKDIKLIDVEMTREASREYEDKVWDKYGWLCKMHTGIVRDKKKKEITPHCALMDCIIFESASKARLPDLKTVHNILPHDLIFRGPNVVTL
Results filed as inconclusive are left out. Activity calls are given as the source filed them. Calls follow the shape of the full dose curve.
Outcome field: choose from active, inactive

{"Compound": "Nc1cc(C(F)(F)F)c(-c2cc(N3CCOCC3)nc(N3CCOCC3)n2)cn1", "Class Assignment": "active"}
{"Compound": "CCc1c(C)[nH]c2c1C(=O)C(CN1CCOCC1)CC2 (stereo not given)", "Class Assignment": "inactive"}
{"Compound": "O=c1[nH]c(-c2ccc(C(F)(F)F)cc2)nc2c1CSCC2", "Class Assignment": "inactive"}
{"Compound": "N#CCNC(=O)c1ccc(-c2ccnc(Nc3ccc(N4CCOCC4)cc3)n2)cc1", "Class Assignment": "inactive"}

Test call for this compound, please: `CCC(=O)N[C@H]1CC[C@H](C(=O)N(C)c2ccc(-c3nc4ccccc4o3)cc2)C1`
active

Outcome? `NCCc1c[nH]c2ccc(O)cc12`
inactive

Entry `Cc1cccc(-c2[nH]ncc2-c2ccc3ncccc3n2)n1` : call = ?
inactive

All values here come from PubChem BioAssay (NCATS).
